Item-by-item account of IC50
molecular target: hPin1 (Protein interacting with NIMA (-kinase)) (Homo sapiens, UniProt Q13526); assay: protease-coupled PPIase assay, hPin1; type: biochemical; conditions: hPin1 6 nM; substrate Ac-Ala-Ala-Ser(PO3H2)-Pro-Arg-pNA, trypsin; 35 mM HEPES pH 7.8, 6° C.; read-out: Specificity of the inhibition with rotamases, Target T-1 (IC50 class)
Sequence (Q13526 whole entry): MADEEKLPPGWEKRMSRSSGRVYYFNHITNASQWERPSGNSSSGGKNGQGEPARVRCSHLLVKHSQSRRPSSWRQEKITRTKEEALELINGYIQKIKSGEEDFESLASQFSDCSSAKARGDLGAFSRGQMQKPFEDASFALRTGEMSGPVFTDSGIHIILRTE

The cases that follow already have their IC50 on record.
COc1cc(CC(=O)N[C@@H](CSCP(=O)(O)O)C(=O)N2CCCC[C@H]2C(=O)N[C@@H](Cc2ccc3ccccc3c2)C(N)=O)cc(OC)c1 [Compound 57]; < 1000 nM
NC(=O)[C@H](Cc1ccc2ccccc2c1)NC(=O)[C@@H]1CCCCN1C(=O)[C@H](CSCP(=O)(O)O)NC(=O)c1cc2ccccc2o1 [Compound 40]; 1000 to 10000 nM
O=C(NCCCc1ccccc1)[C@@H]1CCCCN1C(=O)CSCP(=O)(O)O [Compound 68]; 1000 to 10000 nM
CC(C)(C)NC(=O)[C@H](Cc1ccc2ccccc2c1)NC(=O)[C@@H]1CCCCN1C(=O)CSCP(=O)(O)O [Compound 63]; < 1000 nM
COc1ccccc1CC(=O)N[C@@H](CSCP(=O)(O)O)C(=O)N1CCCC[C@H]1C(=O)N[C@@H](Cc1ccc2ccccc2c1)C(N)=O [Compound 58]; < 1000 nM
CNC(=O)CC(SCP(=O)(O)O)C(=O)N1CCCC[C@H]1C(=O)N[C@@H](Cc1ccc2ccccc2c1)C(N)=O (mixture of isomers) [Compound 69]; 1000 to 10000 nM
CNC(=O)[C@H](Cc1ccc2ccccc2c1)NC(=O)[C@@H]1CCCCN1C(=O)CSCP(=O)(O)O [Compound 64]; < 1000 nM
NC(=O)[C@H](Cc1ccc2ccccc2c1)NC(=O)[C@@H]1CCCCN1C(=O)CSCP(=O)(O)O [Compound 28]; < 1000 nM

Next, consider the following compound.
The compound NC(=O)[C@H](Cc1ccc2ccccc2c1)NC(=O)[C@@H]1CCCCN1C(=O)[C@H](CSCP(=O)(O)O)NC(=O)OCc1ccccc1 [Compound 31] showed IC50 equal to < 1000 nM

---

Listed below: IC50 values for each entry.
target: hPin1 (Protein interacting with NIMA (-kinase)) (Homo sapiens, UniProt Q13526); experiment: protease-coupled PPIase assay, hPin1; format: biochemical; conditions: hPin1 6 nM; substrate Ac-Ala-Ala-Ser(PO3H2)-Pro-Arg-pNA, trypsin; 35 mM HEPES pH 7.8, 6° C.; read-out: Specificity of the inhibition with rotamases, Target T-1 (IC50 class)
Where a SMILES comes first, the peptide text is derived from it. [ ]: non-standard residue; d: D form. The star is where a group is joined. 2Nal = N[C@@H](Cc1ccc2ccccc2c1)C(=O)O; Benzyl(4-Cl) = Clc1ccc(C*)cc1; Pip = O=C(O)[C@@H]1CCCCN1; CH2PO3H2 = O=P(O)(O)C*; Mpa = O=C(O)CCS

Example entries begin here.
CC(C)COC(=O)N[C@@H](CSCP(=O)(O)O)C(=O)N1CCCC[C@H]1C(=O)N[C@@H](Cc1ccc2ccccc2c1)C(N)=O; 1000 to 10000 nM
NC(=O)[C@H](Cc1ccc2ccccc2c1)NC(=O)[C@@H]1CCCCN1C(=O)[C@H](CSCP(=O)(O)O)NC(=O)OCCc1ccccc1; 1000 to 10000 nM
CC(=O)N[C@@H](CSCP(=O)(O)O)C(=O)N1CCCC[C@H]1C(=O)N[C@@H](Cc1ccc2ccccc2c1)C(N)=O; 1000 to 10000 nM
NC(=O)[C@H](Cc1ccc2ccccc2c1)NC(=O)[C@@H]1CCCCN1C(=O)[C@H](CSCP(=O)(O)O)NC(=O)Cc1ccc(N2CCNCC2)cc1; < 1000 nM
O=C(NCCc1ccccc1)[C@@H]1CCCCN1C(=O)CSCP(=O)(O)O; 1000 to 10000 nM
CC(=O)N[C@@H](Cc1csc2ccccc12)C(=O)N[C@@H](CSCP(=O)(O)O)C(=O)N(C)N(C)C(=O)N[C@@H](Cc1ccc2ccccc2c1)C(N)=O; < 1000 nM
NC(=O)[C@H](Cc1ccc2ccccc2c1)NC(=O)[C@@H]1CCCCN1C(=O)[C@H](CSCP(=O)(O)O)NC(=O)Cc1ccc2c(c1)OCO2; < 1000 nM
NC(=O)[C@H](Cc1ccc2ccccc2c1)NC(=O)[C@@H]1CCCCN1C(=O)CCSCP(=O)(O)O; < 1000 nM
NC(=O)[C@H](Cc1ccc2ccccc2c1)NC(=O)[C@@H]1CCCCN1C(=O)[C@H](CSCP(=O)(O)O)NC(=O)CCCC(=O)c1ccc(Cl)cc1; < 1000 nM
CC(=O)N[C@@H](Cc1csc2ccccc12)C(=O)N[C@@H](CSCP(=O)(O)O)C(=O)N(C)NC(=O)N[C@@H](Cc1ccc2ccccc2c1)C(N)=O; < 1000 nM

The reported IC50 of the compound CS(=O)(=O)N[C@@H](CSCP(=O)(O)O)C(=O)N1CCCC[C@H]1C(=O)N[C@@H](Cc1ccc2ccccc2c1)C(N)=O was 1000 to 10000 nM

For reference, reported IC50 for NC(=O)[C@H](Cc1ccc2ccccc2c1)NC(=O)[C@@H]1CCCCN1C(=O)[C@H](CSCP(=O)(O)O)NS(=O)(=O)c1cccs1 stands at < 1000 nM

According to the records, this compound NC(=O)[C@H](Cc1ccc2ccccc2c1)NC(=O)[C@@H]1CCCCN1C(=O)[C@H](CSCP(=O)(O)O)NC(=O)CCSCc1ccc(Cl)cc1 [Compound 5] ([Mpa](Benzyl(4-Cl))C(CH2PO3H2)[Pip][2Nal]-NH2) displays IC50 of < 1000 nM

Item: NC(=O)[C@H](Cc1ccc2ccccc2c1)NC(=O)[C@@H]1CCCCN1C(=O)[C@H](CSCP(=O)(O)O)NC(=O)CCC(=O)c1ccc(Cl)cc1 | IC50: < 1000 nM
